Item-by-item account of Fold depletion in Mef
Test system: immortalized murine embryonic fibroblasts (Mef)
Test: Pooled negative selection RNAi screening (deep sequencing)
Assay type: cell-based
Settings: deep sequencing reads, on dox compared to initial representation
observable: Fold depletion in Mef (Fold)

[[record]]
molecule = "Myb.2652: shRNA, SEQ ID NO: 144 (also SEQ ID NO: 53) (nucleic acid) TGCTGTTGACAGTGAGCGCCCCAAGTAATACTTAATGCAATAGTGAAGCCACAGATGTATTGCATTAAGTATTACTTGGGATGCCTACTGCCTCGGA"
recorded_value = 1.14

[[record]]
molecule = "Flot2.1039: shRNA, SEQ ID NO: 120 (nucleic acid) TGCTGTTGACAGTGAGCGACAAGGTGACATCAGAAGTAAATAGTGAAGCCACAGATGTATTTACTTCTGATGTCACCTTGCTGCCTACTGCCTCGGA"
recorded_value = 2.72

[[record]]
molecule = "Bcl2.2169: shRNA, SEQ ID NO: 96 (also SEQ ID NO: 42) (nucleic acid) TGCTGTTGACAGTGAGCGACAGTAGAAATTATATGCATTATAGTGAAGCCACAGATGTATAATGCATATAATTTCTACTGCTGCCTACTGCCTCGGA"
recorded_value = 1.62

[[record]]
molecule = "Lin28.2180: neutral control shRNA, SEQ ID NO: 198 (nucleic acid) TGCTGTTGACAGTGAGCGCAGCGTGATGGTTGATAGCTAATAGTGAAGCCACAGATGTATTAGCTATCAACCATCACGCTATGCCTACTGCCTCGGA"
recorded_value = 0.80

